Taken from PubChem BioAssay (NCATS).

Experiment: Cellular viability qHTS for adrenocortical cancer (ACC) cell line NCI-H295R (AID 1963990); further: nearly all actives have a fitted effect of over 60% in size
Settings: CellTiter-Glo ATP luminescence, 48 h; series mostly up to 46.1 µM
Results filed as inconclusive are left out. Calls of active or inactive are those of the source. The call rests on the fitted dose curve; in most records, active means well fitted cell-killing curve with a large enough effect; inconclusive means small, poorly fitted or top-dose-only effect; inactive means flat fitted curve, though single readings scatter.
Reply using exactly one outcome from y (active), n (inactive)

INPUT: Any idea what this test logged for CCCCCCCCCCOCC(O)CN (stereo unspecified) ?
OUTPUT: y

INPUT: Any idea what this test logged for `CC(C)C[C@@H]1[C@H](c2ccccc2)OC(=O)N1CCCN1CCCCCC1` ?
OUTPUT: n

INPUT: Any idea what this test logged for `CCCC(=O)O[C@]1(C(=O)CO)CC[C@H]2[C@@H]3CCC4=CC(=O)CC[C@]4(C)[C@H]3[C@@H](O)C[C@@]21C` ?
OUTPUT: n

INPUT: Any idea what this test logged for `CNCc1ccc(C)c(NC(=O)c2ccc(Nc3nc(-c4ccccc4)c4ccccc4n3)cc2)c1` ?
OUTPUT: y

INPUT: Any idea what this test logged for `CNC(=O)c1nn(C)c2c1C(C)(C)Cc1cnc(Nc3ccc(N4CCN(C)CC4)cc3)nc1-2` ?
OUTPUT: y

Further cases:
INPUT: Any idea what this test logged for `CCCCCCCCCCCCCCCCCC(=O)O` ?
OUTPUT: n
